STUDY_SYSTEM: EGFR (UniProt P00533)
Sequence (P00533 whole entry, looked up): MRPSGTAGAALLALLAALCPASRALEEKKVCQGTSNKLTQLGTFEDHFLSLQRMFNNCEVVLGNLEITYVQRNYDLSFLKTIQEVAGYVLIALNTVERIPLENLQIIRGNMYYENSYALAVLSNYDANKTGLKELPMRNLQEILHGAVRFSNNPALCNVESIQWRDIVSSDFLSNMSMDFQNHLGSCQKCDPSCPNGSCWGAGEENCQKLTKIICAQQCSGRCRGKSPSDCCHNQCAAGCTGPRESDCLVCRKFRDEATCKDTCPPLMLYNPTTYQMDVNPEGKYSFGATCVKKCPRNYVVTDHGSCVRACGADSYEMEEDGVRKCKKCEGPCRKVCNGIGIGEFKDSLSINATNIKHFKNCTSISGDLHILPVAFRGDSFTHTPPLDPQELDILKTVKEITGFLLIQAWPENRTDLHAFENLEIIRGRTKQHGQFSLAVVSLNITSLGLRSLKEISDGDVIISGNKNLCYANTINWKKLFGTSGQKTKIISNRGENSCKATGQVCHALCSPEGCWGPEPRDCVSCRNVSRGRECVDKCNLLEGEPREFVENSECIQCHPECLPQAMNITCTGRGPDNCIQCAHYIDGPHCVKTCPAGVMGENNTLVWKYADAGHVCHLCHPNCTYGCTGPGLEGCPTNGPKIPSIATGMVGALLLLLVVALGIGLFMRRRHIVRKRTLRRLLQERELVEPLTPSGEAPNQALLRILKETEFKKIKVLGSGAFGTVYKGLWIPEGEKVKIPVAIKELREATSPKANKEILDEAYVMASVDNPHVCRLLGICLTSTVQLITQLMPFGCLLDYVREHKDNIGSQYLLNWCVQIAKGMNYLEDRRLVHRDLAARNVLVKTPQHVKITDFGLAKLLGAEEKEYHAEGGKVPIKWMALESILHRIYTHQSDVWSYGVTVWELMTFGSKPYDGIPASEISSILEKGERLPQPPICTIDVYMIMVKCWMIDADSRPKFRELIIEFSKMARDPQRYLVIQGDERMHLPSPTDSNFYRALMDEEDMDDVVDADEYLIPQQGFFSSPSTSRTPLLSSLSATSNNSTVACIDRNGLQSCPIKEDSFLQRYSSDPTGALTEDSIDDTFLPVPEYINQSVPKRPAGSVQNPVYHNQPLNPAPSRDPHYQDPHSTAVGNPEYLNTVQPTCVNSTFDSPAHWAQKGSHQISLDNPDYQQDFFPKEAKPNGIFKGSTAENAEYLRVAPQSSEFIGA
pIC50: −log10 of the molar value.
EXPERIMENTAL_READOUT: pIC50

• N#CC(C#N)=Cc1cc(O)c(O)c(O)c1 = 4.15
